# credit: ChEMBL document CHEMBL3875232

# Activity values compiled below
Biological target: Free fatty acid receptor 1 (Homo sapiens, UniProt O14842)
Sequence (O14842 whole entry): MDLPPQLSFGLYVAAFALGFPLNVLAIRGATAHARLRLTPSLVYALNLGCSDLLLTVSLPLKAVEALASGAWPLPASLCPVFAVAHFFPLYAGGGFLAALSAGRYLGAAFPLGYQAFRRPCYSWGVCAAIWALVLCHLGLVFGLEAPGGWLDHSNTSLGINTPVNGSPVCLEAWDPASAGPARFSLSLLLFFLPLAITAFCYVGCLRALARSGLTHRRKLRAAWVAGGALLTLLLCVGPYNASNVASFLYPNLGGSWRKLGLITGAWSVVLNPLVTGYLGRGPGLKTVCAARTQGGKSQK
Experiment: Positive allosteric modulation of human GPR40 expressed in HEK293 cells assessed as IP1 accumulation measured after 60 mins by HTRF assay relative to DMSO control
Format: functional, cell-based
Design: concentration or dose not given beside the values
Dear colleague, please return just the value in %, with no unit written.

1. CC1(C)CCC=C1c1cccc(C2CCc3ccc([C@@H](CC(=O)O)C4CC4)cc3O2)c1 (mixture of isomers) :: 159

Determine its reported Activity: COc1ccc(F)c(-c2ccc([C@@H]3CCc4ccc([C@H](C5CC5)[C@H](C)C(=O)O)cc4O3)cc2)c1
428

Query Activity for COc1ccc(F)c(-c2ccc(C3CCc4ccc([C@H](C5CC5)[C@@H](C)C(=O)O)cc4O3)nc2)c1 (stereo in doubt; 32)
376
